Test system: purified recombinant ARM thermostable lipase
Assay: Lipase organic solvent-stability
Type: biochemical, Geobacillus sp. strain ARM
Details: solvent 30% v/v, 30 min at 30°C, 150 rpm; assay at 65°C
measured-property: remaining lipolytic activity relative to the control (without solvent)

mol: CCCCCCCCCCCCCC
measured: more than 100%
--
mol: CCCCCCCCCCCCO
measured: more than 100%
--
mol: c1ccccc1
measured: more than 100%
--
mol: CCCCCCCCCCCO
measured: 74%
--
mol: CCCCCCCCO
measured: more than 100%
--
mol: CCCCCCCCCCO
measured: 86%

###

System: purified recombinant ARM thermostable lipase
Assay: Lipase organic solvent-stability
Assay type: biochemical, Geobacillus sp. strain ARM
Conditions: solvent 30% v/v, 30 min at 30°C, 150 rpm; assay at 65°C
Method: Aliquots of the enzyme were incubated with the solvents (30%, v/v) for 30 min at 30°C with shaking at 150 rpm. […] The stability was expressed as the remaining lipolytic activity relative to that of the control (without solvent). The relative activity was measured at 65°C as described before.
measured-property: remaining lipolytic activity relative to the control (without solvent)

compound: Cc1ccccc1 [toluene]
measured: more than 100%

compound: CCCCCCC [heptan]
measured: more than 100%

compound: CCCCCCCCCCCCCCCC [1-hexadecane]
measured: 78%

compound: CCCCCCCCCCCCCCCCC [heptadecane]
measured: more than 100%

compound: CCCCCCCCCCCCCCC [n-pentadecane]
measured: more than 100%

compound: CC(C)CC(C)(C)C [iso-octane]
measured: more than 100%

compound: CCc1ccccc1 [ethylbenzene]
measured: 77%

compound: Cc1ccccc1C [o-xylene]
measured: more than 100%

Reference for the values: patent EP2450458B1
